B1: CSNK1G1 (parent)
chain: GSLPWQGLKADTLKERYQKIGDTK

# Variants of: B1
# ASSAY_NOTES: protein stability index of a GFP-peptide fusion (GPS, HEK-293T) (PSI 1-6); higher = more stable;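 note: lentivirally expressed fusions sorted by FACS into six bins by GFP to DsRed ratio, PSI derived from sequencing read proportions per bin multiplied by bin number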
# STUDY_CONDITIONS: c terminus: a fixed tail appended
Below, each entry is listed alongside its reported protein stability index.

{"RESIDUE_CODES": "GSLPWQGLKADQLKERYQKIGDTK [T12Q]", "protein stability index": 4.19}
{"RESIDUE_CODES": "GSLPCQGLKADTLKERYQKIGDTK [W5C]", "protein stability index": 4.7}
{"RESIDUE_CODES": "GSLPWQGLKADTLKVRYQKIGDTK [E15V]", "protein stability index": 3.31}
{"RESIDUE_CODES": "GSLPWQGLKCDTLKERYQKIGDTK [A10C]", "protein stability index": 3.48}
{"RESIDUE_CODES": "GLLPWQGLKADTLKERYQKIGDTK [S2L]", "protein stability index": 4.17}
{"RESIDUE_CODES": "GSLPWTGLKADTLKERYQKIGDTK [Q6T]", "protein stability index": 4.24}
{"RESIDUE_CODES": "GSLPWQGLKADTLKERYQKIGDEK [T23E]", "protein stability index": 4.68}
{"RESIDUE_CODES": "GSLPWQGLKADTLKERHQKIGDTK [Y17H]", "protein stability index": 5.05}
{"RESIDUE_CODES": "GSLPWQGLKADTLKERYQKHGDTK [I20H]", "protein stability index": 4.47}
{"RESIDUE_CODES": "GSLPWFGLKADTLKERYQKIGDTK [Q6F]", "protein stability index": 3.25}
{"RESIDUE_CODES": "GSLPWQGLKADTLKERYQKIRDTK [G21R]", "protein stability index": 4.16}
{"RESIDUE_CODES": "GPLPWQGLKADTLKERYQKIGDTK [S2P]", "protein stability index": 3.95}
{"RESIDUE_CODES": "GSLCWQGLKADTLKERYQKIGDTK [P4C]", "protein stability index": 3.42}
{"RESIDUE_CODES": "GSLPGQGLKADTLKERYQKIGDTK [W5G]", "protein stability index": 4.53}
{"RESIDUE_CODES": "GSLPWQGLKADTLKERYQDIGDTK [K19D]", "protein stability index": 4.67}
{"RESIDUE_CODES": "GSLPWQGLKADTLKERYQPIGDTK [K19P]", "protein stability index": 3.95}
{"RESIDUE_CODES": "GSLPWQGLKADTLKERYQKIPDTK [G21P]", "protein stability index": 4.62}
{"RESIDUE_CODES": "ESLPWQGLKADTLKERYQKIGDTK [G1E]", "protein stability index": 4.44}
{"RESIDUE_CODES": "MSLPWQGLKADTLKERYQKIGDTK [G1M]", "protein stability index": 4.35}
{"RESIDUE_CODES": "GSLPWQGLKADTLKQRYQKIGDTK [E15Q]", "protein stability index": 4.09}
{"RESIDUE_CODES": "GSLPWQGLKADTLKERYGKIGDTK [Q18G]", "protein stability index": 4.09}
{"RESIDUE_CODES": "GSLPWQGLKADTLKERYQKIGFTK [D22F]", "protein stability index": 3}
{"RESIDUE_CODES": "GHLPWQGLKADTLKERYQKIGDTK [S2H]", "protein stability index": 3.16}
{"RESIDUE_CODES": "GSLPWQGLMADTLKERYQKIGDTK [K9M]", "protein stability index": 3.87}
{"RESIDUE_CODES": "GSLPWQGLAADTLKERYQKIGDTK [K9A]", "protein stability index": 3.71}
{"RESIDUE_CODES": "GSLPWQGLGADTLKERYQKIGDTK [K9G]", "protein stability index": 3.9}
{"RESIDUE_CODES": "GSLPWQGLKADTLKERRQKIGDTK [Y17R]", "protein stability index": 4.13}
{"RESIDUE_CODES": "GSLPWQGLRADTLKERYQKIGDTK [K9R]", "protein stability index": 4.09}
{"RESIDUE_CODES": "GSLPWQGLKADYLKERYQKIGDTK [T12Y]", "protein stability index": 3.51}
{"RESIDUE_CODES": "GSLPWQGLKADTLKERDQKIGDTK [Y17D]", "protein stability index": 4.99}
{"RESIDUE_CODES": "GSLPWQGLKADTLKFRYQKIGDTK [E15F]", "protein stability index": 3.56}
{"RESIDUE_CODES": "GSLPWQGLKADTLKERYQQIGDTK [K19Q]", "protein stability index": 4.8}
{"RESIDUE_CODES": "GSLPWQGLKADTLKEAYQKIGDTK [R16A]", "protein stability index": 4.29}
{"RESIDUE_CODES": "GSLPWQGLKADTLKERWQKIGDTK [Y17W]", "protein stability index": 3.82}
{"RESIDUE_CODES": "GSLPWIGLKADTLKERYQKIGDTK [Q6I]", "protein stability index": 3.94}
{"RESIDUE_CODES": "GSLPWQGLKADTGKERYQKIGDTK [L13G]", "protein stability index": 4.12}
{"RESIDUE_CODES": "GSLPWVGLKADTLKERYQKIGDTK [Q6V]", "protein stability index": 4.33}
{"RESIDUE_CODES": "GSLPWQGLKADTLKERYDKIGDTK [Q18D]", "protein stability index": 4.47}
{"RESIDUE_CODES": "LSLPWQGLKADTLKERYQKIGDTK [G1L]", "protein stability index": 3.89}
{"RESIDUE_CODES": "GSLPWQGLKADTLKERYQKIGDTC [K24C]", "protein stability index": 3.4}
{"RESIDUE_CODES": "GSLPWQGLKADTLKERYQKILDTK [G21L]", "protein stability index": 4}
{"RESIDUE_CODES": "GSLPWQGLKADSLKERYQKIGDTK [T12S]", "protein stability index": 4.58}
{"RESIDUE_CODES": "GSLPWQGLKADTLNERYQKIGDTK [K14N]", "protein stability index": 4.58}
{"RESIDUE_CODES": "GSLPWQGLKADTLKERYQKIGDYK [T23Y]", "protein stability index": 3.36}
{"RESIDUE_CODES": "GSLPWQGLKADTLKKRYQKIGDTK [E15K]", "protein stability index": 3.29}
{"RESIDUE_CODES": "GSLPWQGLKADTFKERYQKIGDTK [L13F]", "protein stability index": 4.2}
